- target: MLK3 (Homo sapiens (Human), UniProt Q16584)
- Sequence (Q16584 whole entry): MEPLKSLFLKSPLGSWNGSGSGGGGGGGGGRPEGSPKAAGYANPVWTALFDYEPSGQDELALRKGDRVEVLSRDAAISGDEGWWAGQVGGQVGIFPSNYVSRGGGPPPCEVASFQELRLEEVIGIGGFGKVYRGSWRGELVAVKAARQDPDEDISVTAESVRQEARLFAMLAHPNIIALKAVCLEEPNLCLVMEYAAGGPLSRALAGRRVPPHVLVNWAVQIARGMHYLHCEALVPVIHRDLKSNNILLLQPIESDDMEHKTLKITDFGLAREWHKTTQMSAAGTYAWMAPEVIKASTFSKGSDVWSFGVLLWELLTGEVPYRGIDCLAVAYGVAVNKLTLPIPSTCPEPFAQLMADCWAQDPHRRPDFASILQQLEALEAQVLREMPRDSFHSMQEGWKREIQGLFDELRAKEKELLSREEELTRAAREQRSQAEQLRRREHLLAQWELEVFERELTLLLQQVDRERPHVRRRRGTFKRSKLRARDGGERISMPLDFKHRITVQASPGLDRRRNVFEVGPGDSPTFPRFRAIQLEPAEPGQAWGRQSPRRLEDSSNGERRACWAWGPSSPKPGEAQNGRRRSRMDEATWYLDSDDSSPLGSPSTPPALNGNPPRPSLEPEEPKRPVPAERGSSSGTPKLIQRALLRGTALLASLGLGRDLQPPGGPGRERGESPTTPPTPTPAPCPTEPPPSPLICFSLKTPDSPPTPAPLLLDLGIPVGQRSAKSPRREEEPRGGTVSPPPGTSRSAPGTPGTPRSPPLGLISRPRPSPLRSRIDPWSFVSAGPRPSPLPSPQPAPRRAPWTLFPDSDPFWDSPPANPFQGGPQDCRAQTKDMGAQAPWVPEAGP
- assay-overview: Radiometric filter plate MLK3 assay
- Assay type: biochemical
- condition-parameters: 2 μM cold ATP (Km), 1 μM inactive MKK7b, twenty minute incubation; read-out: MK3 IC50
Field: IC50. Provide a value for each of the compounds that follow.

What does the record list as IC50 for COc1cc(-c2cnc3[nH]c(=O)n(C4Cc5ccccc5C4)c3n2)cc(OC)c1OC ?
< 100 nM

And O=c1[nH]c2ncc(-c3ccncc3)nc2n1C1CCCC1 ?
> 1000 nM

And COc1cc(-c2cnc3[nH]cc(-c4ccc(C(N)=O)cc4)c3c2)cc(OC)c1OC ?
< 100 nM

And COc1cc(OC)c(-c2cnc3[nH]c(=O)n(C4CCCC4)c3n2)c(OC)c1 ?
> 1000 nM

And O=C(CC1CC1)N1CCN(Cc2ccc(-c3cnc4[nH]cc(-c5ccc6[nH]ccc6c5)c4c3)cc2)CC1 ?
< 100 nM

And CC(=O)N1CCN(C(=O)c2ccc(-c3cnc4[nH]cc(-c5ccc6[nH]ccc6c5)c4c3)cc2)CC1 ?
< 100 nM

And O=c1[nH]c2ncc(-c3ccncc3)nc2n1-c1ccc2scnc2c1 ?
> 1000 nM

And Nc1ccc(-c2cnc3[nH]c(=O)n(C4CCCC4)c3n2)cn1 ?
> 1000 nM

And COc1cc(-c2cnc3c(c2)C(=Cc2ccccc2)C(=O)N3)cc(OC)c1OC ?
> 1000 nM

And COc1ccc(-c2cnc3[nH]c(=O)n(C4CCCC4)c3n2)cc1OC ?
> 1000 nM

And CN1CCN(Cc2ccc(-c3c[nH]c4ncc(-c5ccc6[nH]ccc6c5)cc34)cc2)CC1 ?
> 1000 nM

And O=C1CN(Cc2ccc(-c3cnc4[nH]cc(-c5ccc6[nH]ccc6c5)c4c3)cc2)CCN1 ?
< 100 nM

And CC(C)(C)OC(=O)N1CCN(C(=O)c2ccc(-c3cnc4[nH]cc(-c5ccc(C(N)=O)cc5)c4c3)cc2)CC1 ?
< 100 nM

And Cc1cc(C)cc(-c2cnc3[nH]c(=O)n(-c4ccc5cn[nH]c5c4)c3n2)c1 ?
> 1000 nM

And Nc1ccc(-c2cnc3[nH]cc(-c4ccc5[nH]ccc5c4)c3c2)cn1 ?
< 100 nM

And COc1cc(-c2cnc3c(c2)C(Cc2ccc(C(N)=O)cc2)C(=O)N3)cc(OC)c1OC (centres unmarked) ?
> 1000 nM

And COc1cc(-c2cnc3[nH]c(=O)n(C4CCCC4)c3n2)cc(OC)c1OC ?
< 100 nM
